- System: calf thymus DNA (CT-DNA)
- assay_comment: DNA thermal denaturation (melting) studies
- Assay type: binding
- condition_set: CT-DNA 100 μM DNAp, compound 20 μM, 37 °C, pH 7.00, 72 hours
measurement_label: Induced ΔTm after incubation 72 hours (°C)

>  <smiles_code>
COC(=O)c1cc(NC(=O)c2csc(NC(=O)c3cc(NC(=O)CCCOc4cc5c(cc4OC)C(=O)N4CCC[C@H]4C=N5)cn3C)n2)cn1C

>  <measurement_label>
Induced ΔTm after incubation 72 hours

>  <reported_value>
20.9

$$$$
>  <smiles_code>
COC(=O)c1cc(NC(=O)c2cc(NC(=O)c3nc(NC(=O)CCCOc4cc5c(cc4OC)C(=O)N4CCC[C@H]4C=N5)cn3C)cn2C)cn1C

>  <measurement_label>
Induced ΔTm after incubation 72 hours

>  <reported_value>
21.6

$$$$
>  <smiles_code>
CCOC(=O)c1csc(NC(=O)c2csc(NC(=O)c3csc(NC(=O)CCCOc4cc5c(cc4OC)C(=O)N4CCC[C@H]4C=N5)n3)n2)n1

>  <measurement_label>
Induced ΔTm after incubation 72 hours

>  <reported_value>
11.0

$$$$
